- procedureDetails: Hygroscopicity test, condition 2 (humidity chamber, weight change)
- Assay type: physicochemical
- assayConditions: dry before
measuredMetric: Weight (g)

CNCC(=O)O.CNCC(=O)O.O=C(O)C(O)C(O)C(=O)O [N-MG/L-TA = 2/1]; 0.1457
CNCC(=O)O [N-MG, N-methylglycine, reference compound]; 0.1375
CNCC(=O)O.O=C(O)C(O)C(O)C(=O)O [N-MG/L-TA = 1/1]; 0.1434
CNCC(=O)O.O=C(O)C(O)C(O)C(=O)O (racemic) [N-MG/DL-TA = 1/1]; 0.1305
CNCC(=O)O.CNCC(=O)O.O=C(O)C(O)C(O)C(=O)O (racemic) [N-MG/DL-TA = 2/1]; 0.1628

###

- procedureDetails: Hygroscopicity test, condition 3 (dynamic vapor sorption, 0 to 90 to 0% RH)
- Assay type: physicochemical
- assayConditions: DVS, 25° C., RH 70%
measuredMetric: Change In Mass (%)

P = CNCC(=O)O.CNCC(=O)O.O=C(O)C(O)C(O)C(=O)O [N-MG/L-TA = 2/1]
Q = CNCC(=O)O.CNCC(=O)O.O=C(O)C(O)C(O)C(=O)O (racemic) [N-methylglycine:DL-tartaric acid 2:1 co-crystal]
R = CNCC(=O)O.CNCC(=O)O.O=C(O)C(O)C(O)C(=O)O [N-MG/D-TA = 2/1]
Task: # rank above entries by Change In Mass (%) (max first, min last) To answer, arrange all of the labels according to the requested order.
Result: Q, R, P
(Q: 3.12%, R: 0.31%, P: 0.18%)

###

- procedureDetails: Hygroscopicity test, condition 2 (humidity chamber, weight change)
- Format: physicochemical
- assayConditions: dry before (change on drying to 0 hr weight)
measuredMetric: Weight change (%)

CNCC(=O)O.CNCC(=O)O.O=C(O)C(O)C(O)C(=O)O [N-MG/L-TA = 2/1]; (−0.1%)
CNCC(=O)O.CNCC(=O)O.O=C(O)C(O)C(O)C(=O)O (racemic) [N-MG/DL-TA = 2/1]; (−0%)
CNCC(=O)O [N-MG, N-methylglycine, reference compound]; (−0%)
CNCC(=O)O.O=C(O)C(O)C(O)C(=O)O [N-MG/L-TA = 1/1]; (−0.1%)

###

- procedureDetails: Hygroscopicity test, condition 3 (dynamic vapor sorption, 0 to 90 to 0% RH)
- Format: physicochemical
- assayConditions: DVS, 25° C., RH 40%
measuredMetric: Change In Mass (%)

Reference set (2 entries):
CNCC(=O)O [N-MG, N-methylglycine, reference compound]; 0.0
CNCC(=O)O.CNCC(=O)O.O=C(O)C(O)C(O)C(=O)O [N-MG/L-TA = 2/1]; 0.07

I = CNCC(=O)O.CNCC(=O)O.O=C(O)C(O)C(O)C(=O)O [N-MG/D-TA = 2/1]
II = CNCC(=O)O.CNCC(=O)O.O=C(O)C(O)C(O)C(=O)O (racemic) [N-MG/DL-TA = 2/1]
Task: Input pair: I , II . Output: entry with lower Change In Mass (%). Pick one and reply with its label.
Result: I

###

- procedureDetails: Hygroscopicity test, condition 2 (humidity chamber, weight change)
- Assay type: physicochemical
- assayConditions: 30° C., 75% RH, 24 hr
measuredMetric: Weight (g)

CNCC(=O)O.CNCC(=O)O.O=C(O)C(O)C(O)C(=O)O [N-MG/L-TA = 2/1]; 0.1465
CNCC(=O)O [N-MG, N-methylglycine, reference compound]; 0.2884
CNCC(=O)O.O=C(O)C(O)C(O)C(=O)O (racemic) [N-MG/DL-TA = 1/1]; 0.1819

1 = CNCC(=O)O.CNCC(=O)O.O=C(O)C(O)C(O)C(=O)O (racemic) [N-MG/DL-TA = 2/1]
2 = CNCC(=O)O.O=C(O)C(O)C(O)C(=O)O [N-MG/L-TA = 1/1]
Task: Input pair: 1 , 2 . Output: entry with lower Weight. Pick one and reply with its label.
Result: 2
